Data origin, for the record: ChEMBL document CHEMBL1138915

molecular target: Adenosine receptor A2b (Homo sapiens)
Sequence (P29275 whole entry): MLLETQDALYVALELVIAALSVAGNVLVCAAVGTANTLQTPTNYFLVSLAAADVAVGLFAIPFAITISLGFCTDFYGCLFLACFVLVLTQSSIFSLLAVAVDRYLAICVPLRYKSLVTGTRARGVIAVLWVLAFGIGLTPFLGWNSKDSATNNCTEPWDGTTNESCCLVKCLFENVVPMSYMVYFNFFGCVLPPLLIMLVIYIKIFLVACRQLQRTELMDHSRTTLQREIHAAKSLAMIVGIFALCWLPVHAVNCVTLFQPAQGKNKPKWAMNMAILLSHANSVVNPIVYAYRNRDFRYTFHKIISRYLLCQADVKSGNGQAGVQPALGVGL
pKi: −log10 of the molar value.
experimental.readout: pKi

>>> result("O=C(Nc1ccncc1)Nc1nc2nn(CCO)cc2c2nc(-c3ccco3)nn12")
"< 6.00"

----------
Target: Adenosine receptor A3 (Homo sapiens, UniProt P0DMS8)
Sequence (P0DMS8 whole entry): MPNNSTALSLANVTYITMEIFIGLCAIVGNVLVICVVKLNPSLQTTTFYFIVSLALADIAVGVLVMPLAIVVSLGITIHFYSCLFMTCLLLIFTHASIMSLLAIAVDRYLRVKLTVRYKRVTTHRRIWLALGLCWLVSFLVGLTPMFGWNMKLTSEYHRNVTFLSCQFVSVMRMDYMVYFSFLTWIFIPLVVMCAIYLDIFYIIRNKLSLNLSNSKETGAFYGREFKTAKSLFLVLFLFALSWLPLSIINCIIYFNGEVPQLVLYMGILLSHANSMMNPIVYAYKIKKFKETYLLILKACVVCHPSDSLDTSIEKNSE
Experiment: Displacement of [3H]MRE 3008F20 from human adenosine A3 receptor expressed in CHO cells
Type: cell-based
Conditions: cho
experimental.readout: Ki (nM)

>>> quantitative_result("O=C(Nc1ccccc1)Nc1ncnc2ccccc12")
1200

----------
target: Adenosine receptor A3 (Homo sapiens, UniProt P0DMS8); experiment: Displacement of [3H]MRE 3008F20 from human adenosine A3 receptor expressed in CHO cells; assay type: cell-based
pKi: −log10 of the molar value.
Tick Met if pKi is 8 or greater. Tick Not met if pKi is less than 8.

>>> label("CCOC(=O)c1c(-c2ccccc2)nc(C)c(C(=O)SCC)c1C")
"Not met"
>>> label("O=C(Nc1ccncc1)Nc1nc2nn(CCCO)cc2c2nc(-c3ccco3)nn12")
"Met"
>>> label("O=C(Nc1ccncc1)Nc1nc2nn(CCO)cc2c2nc(-c3ccco3)nn12")
"Met"
>>> label("CCCOC(=O)c1c(C)nc(-c2ccccc2)c(C(=O)OCC)c1C")
"Not met"
>>> label("CCn1cc2c(n1)N=C(NC(=O)Nc1ccc(C)cc1)N1N=C(c3ccco3)NC21 (stereo not given)")
"Met"
>>> label("CCCc1c(C(=O)SCC)c(C)nc(-c2ccccc2)c1C(=O)OCC")
"Not met"

----------
The molecules listed here are annotated with their Ki.
target: Adenosine receptor A3 (Homo sapiens, UniProt P0DMS8); assay: Displacement of [3H]MRE 3008F20 from human adenosine A3 receptor expressed in CHO cells; format: cell-based
experimental.readout: Ki (nM)

>>> quantitative_result("O=C(Nc1ccncc1)Nc1nc2nn(CCCOCc3ccccc3)cc2c2nc(-c3ccco3)nn12")
14
>>> quantitative_result("CCCOC(=O)c1c(CC)nc(-c2cccc(Cl)c2)c(C(=O)OCCC)c1CC")
7.9
>>> quantitative_result("O=C(Nc1cccnc1)Nc1nc2nn(CCOCc3ccccc3)cc2c2nc(-c3ccco3)nn12")
9
>>> quantitative_result("CCCOC(=O)c1c(-c2ccccc2)nc(CC)c(C(=O)OCC)c1CC")
8.3
